Below, each entry is listed with its recorded ED50, dose required to decrease mean A.M. food intake by 50%.
system: rats; assay: Feeding effects of acute administration of CCK agonists in rats (liquid diet); type: in vivo; details: i.p., acute (1 day)
*1 amine or outer side, *2 acyl side, *3 side chain or, on linkers, in order; H or OH if unused. Where a SMILES comes first, the peptide text is derived from it. Side-chain parts run from the residue outwards. [ ]: non-standard residue; d: D form. The star is where a group is joined. ξ: configuration not given here. ξαMeW = CC(N)(Cc1c[nH]c2ccccc12)C(=O)O; NMeF = CN[C@@H](Cc1ccccc1)C(=O)O; NMeD = CN[C@@H](CC(=O)O)C(=O)O; NH(2-Me-phenyl) = Cc1ccccc1N*; Boc = CC(C)(C)OC(=O)*; CO = O=C([*:1])[*:2]
endpoint: ED50, dose required to decrease mean A.M. food intake by 50% (nmol/kg)

compound	observed
Cc1ccccc1NC(=O)NCCCC[C@H](NC(=O)[C@H](Cc1c[nH]c2ccccc12)NC(=O)OC(C)(C)C)C(=O)N(C)[C@@H](CC(=O)O)C(=O)N(C)[C@@H](Cc1ccccc1)C(N)=O [Example 61] (Boc-WK([CO-NH(2-Me-phenyl)])[NMeD][NMeF]-NH2)	2.6
Cc1ccccc1NC(=O)NCCCC[C@H](NC(=O)C(C)(N)Cc1c[nH]c2ccccc12)C(=O)N[C@@H](CC(=O)O)C(=O)N[C@@H](Cc1ccccc1)C(N)=O (stereo partly shown) [Example 97] (H-[ξαMeW]K([CO-NH(2-Me-phenyl)])DF-NH2)	9.4
CCOC(=O)C(C)(Cc1c[nH]c2ccccc12)C(=O)N[C@@H](CCCCNC(=O)Nc1ccccc1C)C(=O)N[C@@H](CC(=O)O)C(=O)N(C)[C@@H](Cc1ccccc1)C(N)=O (stereo partly shown)	26.1
Cc1ccccc1NC(=O)NCCCC[C@H](NC(=O)C(Cc1c[nH]c2ccccc12)C(N)=O)C(=O)N[C@@H](CC(=O)O)C(=O)N(C)[C@@H](Cc1ccccc1)C(N)=O (stereo partly shown)	58.5

###

target: Type-B CCK receptor (Cavia porcellus); construct: Cortical and pancreatic membranes were prepared as described; from tissue; host or cells: guinea pig cerebral cortex membranes; experiment: Radioligand binding of [125I]BH-CCK-8 in guinea pig cerebral cortical membrane preparations; conditions: guinea pig cortical membranes, 30° C., 150 minutes; read-out: IC50 (nM) 125I-BH-CCK-8 Type-B receptor
Sequence (H0VZC5 1-426): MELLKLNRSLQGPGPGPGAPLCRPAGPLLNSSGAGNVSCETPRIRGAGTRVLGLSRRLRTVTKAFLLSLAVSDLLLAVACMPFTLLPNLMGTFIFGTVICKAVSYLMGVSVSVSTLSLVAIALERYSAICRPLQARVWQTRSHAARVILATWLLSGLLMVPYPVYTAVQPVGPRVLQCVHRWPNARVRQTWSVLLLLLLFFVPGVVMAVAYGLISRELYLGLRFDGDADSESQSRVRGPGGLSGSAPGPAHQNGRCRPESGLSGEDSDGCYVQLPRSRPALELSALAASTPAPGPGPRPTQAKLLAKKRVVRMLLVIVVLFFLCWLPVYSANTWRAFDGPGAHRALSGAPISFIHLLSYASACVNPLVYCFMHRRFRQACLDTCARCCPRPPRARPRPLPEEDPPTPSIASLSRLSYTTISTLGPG
*1 amine or outer side, *2 acyl side, *3 side chain or, on linkers, in order; H or OH if unused. Where a SMILES comes first, the peptide text is derived from it. Side-chain parts run from the residue outwards. The star is where a group is joined. X9 = CN(C)c1ccc(C=CC(=O)*)cc1; Boc = CC(C)(C)OC(=O)*; X24 = CC(C)c1ccccc1N*; CO = O=C([*:1])[*:2]
Below, each entry is listed with its recorded IC50.

molecule	IC50 [nM]
CC(C)(C)OC(=O)N[C@@H](Cc1c[nH]c2ccccc12)C(=O)N[C@@H](CCCC/N=C(\S)Nc1ccccc1Cl)C(=O)N[C@@H](CC(=O)O)C(=O)N[C@@H](Cc1ccccc1)C(N)=O	2900
Cc1ccccc1NC(=O)NCCCC[C@H](NC(=O)C(C#N)Cc1c[nH]c2ccccc12)C(=O)N[C@@H](CC(=O)O)C(=O)N(C)[C@@H](Cc1ccccc1)C(N)=O (some centres unmarked)	1300
Cc1ccccc1NC(=O)NCCCC[C@H](NC(=O)C(C)Cc1c[nH]c2ccccc12)C(=O)N[C@@H](CC(=O)O)C(=O)N(C)[C@@H](Cc1ccccc1)C(N)=O (some centres unmarked)	4100
CN(C)c1ccc(C=CC(=O)NCCCC[C@H](NC(=O)[C@H](Cc2c[nH]c3ccccc23)NC(=O)OC(C)(C)C)C(=O)N[C@@H](CC(=O)O)C(=O)N[C@@H](Cc2ccccc2)C(N)=O)cc1 [Example 13] (Boc-WK(X9)DF-NH2)	2100
CC(C)c1ccccc1NC(=O)NCCCC[C@H](NC(=O)[C@H](Cc1c[nH]c2ccccc12)NC(=O)OC(C)(C)C)C(=O)N[C@@H](CC(=O)O)C(=O)N[C@@H](Cc1ccccc1)C(N)=O [Example 41] (Boc-WK([CO-X24])DF-NH2)	5700
